System: UO-31
assay-comment: NCI tumour cell line growth inhibition, 48 h
The source made the active and inactive calls. No stated cut-off is given here; in the data, active = GI50 up to about 1.1 µM and inactive = higher.
Give your call using only these classes: active, inactive

Recorded test outcome, item Cc1cccc(NC(Nc2cccc(C)c2)=C(C(Cl)=C(Cl)Cl)[N+](=O)[O-])c1
inactive

Recorded test outcome, item CC1(C)COC(c2c(-c3ccccc3)noc2C[S+]([O-])c2ccccc2)=N1 (stereo not given)
inactive

Recorded test outcome, item O=c1c2ccccc2[se]n1-c1cccnc1
inactive

Recorded test outcome, item Oc1ccc(-c2nc(-c3ccc4ccccc4n3)c(-c3ccc(F)cc3)[nH]2)cc1
inactive

Recorded test outcome, item COc1cccc2c1C(=O)c1c(O)c3c(c(O)c1C2=O)C[C@@](O)(C(=O)CO)CC3OC1CC(NCCOCC(OC(C)=O)OC(C)=O)C(O)C(C)O1 (stereo not given in full)
active

Recorded test outcome, item C/C=C1\Oc2ccc(OC)cc2S1(=O)=O
inactive

Recorded test outcome, item Oc1cccc2ccc(Br)nc12
inactive

Recorded test outcome, item O=CN/C=C/c1ccccc1
inactive

Recorded test outcome, item O=C1CS(=O)(=O)C(c2cccc(Oc3ccccc3)c2)N1c1ccc(Cl)cc1 (stereo not given)
inactive

Recorded test outcome, item COc1cc(S(=O)(=O)Nc2ccc(-c3csc(N4C(=O)CSC4c4cccc(Oc5ccccc5)c4)n3)cc2)ccc1Cl (stereo not given)
inactive
